The values you see were collected from patent US20150216865A1.

Assay: Solubility
Format: physicochemical
Settings: water; read-out: solubility in water
Observed property: solubility

Qu. Returns the measured solubility for the input molecule. Input: C=CC(=O)Nc1cccc(Nc2nc(Nc3ccc(OCCOC)cc3)ncc2F)c1 [Compound 1 besylate]
Ans. ~160 µg/mL

----------
Test: Clinical single dose study in healthy human volunteers, pharmacokinetics
Assay type: in vivo
Conditions: plasma, single oral 2 mg/kg, 6 subjects, read-out: mean maximum plasma concentration (Cmax)
Observed property: Cmax (ng/mL)
Answers are plain numbers, in ng/mL.

Qu. Returns the measured Cmax for the input molecule. Input: C=CC(=O)Nc1cccc(Nc2nc(Nc3ccc(OCCOC)cc3)ncc2F)c1 [Compound 1 besylate]
Ans. 542

----------
Molecular target: Btk (Homo sapiens)
Sequence (Q06187 whole entry): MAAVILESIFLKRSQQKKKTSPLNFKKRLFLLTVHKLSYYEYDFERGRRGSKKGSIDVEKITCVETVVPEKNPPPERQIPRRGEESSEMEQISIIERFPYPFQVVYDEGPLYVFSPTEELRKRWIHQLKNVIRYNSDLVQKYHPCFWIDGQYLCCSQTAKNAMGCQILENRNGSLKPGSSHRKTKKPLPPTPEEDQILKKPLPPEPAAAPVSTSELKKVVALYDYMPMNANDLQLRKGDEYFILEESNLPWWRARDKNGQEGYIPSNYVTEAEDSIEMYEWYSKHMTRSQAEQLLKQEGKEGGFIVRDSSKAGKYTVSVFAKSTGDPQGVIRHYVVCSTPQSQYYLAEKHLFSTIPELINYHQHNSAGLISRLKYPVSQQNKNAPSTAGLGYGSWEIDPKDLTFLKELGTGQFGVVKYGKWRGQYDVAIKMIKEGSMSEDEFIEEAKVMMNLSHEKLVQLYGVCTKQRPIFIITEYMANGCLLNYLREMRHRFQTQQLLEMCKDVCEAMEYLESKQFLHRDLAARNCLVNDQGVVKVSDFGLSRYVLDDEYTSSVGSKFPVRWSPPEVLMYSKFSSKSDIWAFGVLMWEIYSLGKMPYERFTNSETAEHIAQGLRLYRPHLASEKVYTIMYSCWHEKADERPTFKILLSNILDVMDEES
Observed property: pIC50
Answers are plain numbers, as −log10 of the molar value.

Qu. Returns the measured pIC50 for the input molecule. Input: C=CC(=O)Nc1cccc(Nc2nc(Nc3cccc(OCCCNC(=O)CCCC(=O)NCCCOCCOCCOCCCNC(=O)CCCC[C@@H]4SC[C@@H]5NC(=O)N[C@@H]54)c3)ncc2C)c1
Ans. 9.30

----------
Tested on: naïve human B-cells
Assay: B lymphocyte proliferation (3H-thymidine incorporation)
Format: cell-based
Conditions: B-cell; α-human IgM stimulated
Observed property: pEC50
Numbers only, as −log10 of the molar value.

Qu. Param readout= pEC50; system= naïve human B-cells; entry= C=CC(=O)Nc1cccc(Nc2nc(Nc3ccc(OCCOC)cc3)ncc2F)c1 ; returns value.
Ans. 8.52

----------
Experiment: Solubility
Type: physicochemical
Settings: aqueous solution, aqueous buffer; approximately pH 3.0; read-out: maximum aqueous solubility
Observed property: solubility (µg/mL)
One number for each entry, in µg/mL.

Qu. Returns the measured solubility for the input compound. Input: C=CC(=O)Nc1cccc(Nc2nc(Nc3ccc(OCCOC)cc3)ncc2F)c1 [Compound 1 besylate]
Ans. 400

----------
Target: Syk (Homo sapiens, UniProt P43405)
Observed property: IC50

Qu. Returns the measured IC50 for the input molecule. Input: C=CC(=O)Nc1cccc(Nc2nc(Nc3cccc(OCCCNC(=O)CCCC(=O)NCCCOCCOCCOCCCNC(=O)CCCC[C@@H]4SC[C@@H]5NC(=O)N[C@@H]54)c3)ncc2C)c1
Ans. > 1000 nM

----------
Target: EGFR (Homo sapiens)
Sequence (P00533 25-1210): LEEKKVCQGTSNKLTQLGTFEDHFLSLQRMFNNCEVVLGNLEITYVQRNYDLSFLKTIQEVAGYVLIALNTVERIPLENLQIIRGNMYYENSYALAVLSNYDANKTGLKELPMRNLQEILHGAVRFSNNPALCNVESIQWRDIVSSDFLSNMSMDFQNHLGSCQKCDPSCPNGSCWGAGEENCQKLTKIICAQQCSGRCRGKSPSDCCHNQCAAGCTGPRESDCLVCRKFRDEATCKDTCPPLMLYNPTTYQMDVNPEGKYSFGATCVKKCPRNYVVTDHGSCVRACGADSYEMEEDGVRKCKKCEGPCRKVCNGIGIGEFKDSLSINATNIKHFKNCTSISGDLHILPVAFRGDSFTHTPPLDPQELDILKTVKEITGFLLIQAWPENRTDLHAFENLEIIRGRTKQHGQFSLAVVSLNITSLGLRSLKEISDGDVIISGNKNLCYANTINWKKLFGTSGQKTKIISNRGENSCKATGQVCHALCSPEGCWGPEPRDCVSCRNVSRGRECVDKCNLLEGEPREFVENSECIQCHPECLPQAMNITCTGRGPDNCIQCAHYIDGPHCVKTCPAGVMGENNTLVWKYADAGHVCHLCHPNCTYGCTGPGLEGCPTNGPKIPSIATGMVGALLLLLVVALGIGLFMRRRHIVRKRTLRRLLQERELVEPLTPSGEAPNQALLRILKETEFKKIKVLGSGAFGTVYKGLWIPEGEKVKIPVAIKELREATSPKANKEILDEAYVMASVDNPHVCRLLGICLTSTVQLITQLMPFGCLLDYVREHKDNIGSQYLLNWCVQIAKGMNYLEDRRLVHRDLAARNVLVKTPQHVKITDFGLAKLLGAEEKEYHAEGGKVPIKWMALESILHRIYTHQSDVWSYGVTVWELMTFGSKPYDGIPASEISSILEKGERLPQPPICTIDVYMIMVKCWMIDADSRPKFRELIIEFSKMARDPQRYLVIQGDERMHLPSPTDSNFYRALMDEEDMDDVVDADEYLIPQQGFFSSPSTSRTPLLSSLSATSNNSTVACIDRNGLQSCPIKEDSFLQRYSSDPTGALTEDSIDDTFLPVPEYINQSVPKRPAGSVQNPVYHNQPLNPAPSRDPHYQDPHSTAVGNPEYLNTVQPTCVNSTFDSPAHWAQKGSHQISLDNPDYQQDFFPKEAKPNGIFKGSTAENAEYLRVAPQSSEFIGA
Observed property: IC50

Qu. Returns the measured IC50 for the input molecule. Input: C=CC(=O)Nc1cccc(Nc2nc(Nc3cccc(OCCCNC(=O)CCCC(=O)NCCCOCCOCCOCCCNC(=O)CCCC[C@@H]4SC[C@@H]5NC(=O)N[C@@H]54)c3)ncc2C)c1
Ans. > 25 nM

----------
Test: Clinical single dose study in healthy human volunteers, pharmacokinetics
Assay type: in vivo
Settings: plasma, single oral 2 mg/kg, read-out: median terminal elimination half-life (converted)
Observed property: half-life (h)
One number for each entry, in h.

Qu. Returns the measured half-life for the input molecule. Input: C=CC(=O)Nc1cccc(Nc2nc(Nc3ccc(OCCOC)cc3)ncc2F)c1 [Compound 1 besylate]
Ans. 1.9
